biological target: ROCK2 (Homo sapiens)
Sequence (O75116 whole entry, species assumed): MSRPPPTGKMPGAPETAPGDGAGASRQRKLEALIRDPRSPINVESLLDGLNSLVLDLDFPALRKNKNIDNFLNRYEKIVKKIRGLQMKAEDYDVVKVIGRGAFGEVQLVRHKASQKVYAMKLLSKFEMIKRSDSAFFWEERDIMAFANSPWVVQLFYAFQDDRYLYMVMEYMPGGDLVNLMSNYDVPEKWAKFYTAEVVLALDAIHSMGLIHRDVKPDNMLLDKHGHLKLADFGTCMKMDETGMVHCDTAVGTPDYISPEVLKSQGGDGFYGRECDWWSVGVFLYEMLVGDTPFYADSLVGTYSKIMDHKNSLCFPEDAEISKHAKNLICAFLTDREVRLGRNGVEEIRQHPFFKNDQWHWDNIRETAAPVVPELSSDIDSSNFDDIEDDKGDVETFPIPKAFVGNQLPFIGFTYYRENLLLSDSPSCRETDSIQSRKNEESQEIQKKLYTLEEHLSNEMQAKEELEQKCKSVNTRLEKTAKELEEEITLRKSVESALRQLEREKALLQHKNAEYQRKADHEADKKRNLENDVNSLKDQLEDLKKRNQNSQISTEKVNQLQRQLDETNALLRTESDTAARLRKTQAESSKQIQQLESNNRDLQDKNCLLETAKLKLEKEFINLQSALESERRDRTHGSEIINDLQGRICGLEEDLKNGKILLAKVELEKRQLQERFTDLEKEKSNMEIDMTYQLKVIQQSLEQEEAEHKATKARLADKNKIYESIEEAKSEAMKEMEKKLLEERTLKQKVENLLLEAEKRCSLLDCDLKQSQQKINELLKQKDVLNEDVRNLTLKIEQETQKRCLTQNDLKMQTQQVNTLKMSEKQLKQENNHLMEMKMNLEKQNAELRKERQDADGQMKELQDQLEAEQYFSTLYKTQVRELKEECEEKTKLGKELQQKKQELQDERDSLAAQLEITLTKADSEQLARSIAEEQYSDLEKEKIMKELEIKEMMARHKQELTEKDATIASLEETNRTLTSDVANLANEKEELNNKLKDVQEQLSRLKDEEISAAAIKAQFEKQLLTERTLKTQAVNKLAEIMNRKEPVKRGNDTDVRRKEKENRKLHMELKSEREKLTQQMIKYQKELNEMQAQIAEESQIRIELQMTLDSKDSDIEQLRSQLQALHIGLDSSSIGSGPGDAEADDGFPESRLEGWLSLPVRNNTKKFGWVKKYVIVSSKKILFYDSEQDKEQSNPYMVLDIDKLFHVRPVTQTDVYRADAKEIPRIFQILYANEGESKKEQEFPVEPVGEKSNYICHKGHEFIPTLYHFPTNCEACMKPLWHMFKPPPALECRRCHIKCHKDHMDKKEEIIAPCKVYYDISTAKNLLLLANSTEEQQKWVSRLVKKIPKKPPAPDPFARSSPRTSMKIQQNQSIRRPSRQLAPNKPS
Counter-ions that a name gives are not always drawn.
readout_name: IC50

{"columns": ["compound", "readout_name", "data_value"],
 "data": [
  ["CC(=O)Nc1ccc2c(C(=O)NC3CC4(C3)CC(c3n[nH]c(=O)c5ccccc35)C4)noc2c1 (centres unmarked)", "IC50", "5.1 to 15 nM"],
  ["O=C(NC1CC2(C1)CC(c1n[nH]c(=O)c3ccccc13)C2)N1CCc2cc(-c3cnn(C4CCOCC4)c3)ccc21 (centres unmarked)", "IC50", "2.01 to 5 nM"],
  ["CC1(C)CN(C(=O)NC2CC3(C2)CC(c2n[nH]c(=O)c4ccccc24)C3)c2ccccc21 (centres unmarked)", "IC50", "5.1 to 15 nM"],
  ["Cn1nc(C2CC2)cc1C(=O)NC1CC2(C1)CC(c1n[nH]c(=O)c3ccccc13)C2 (centres unmarked)", "IC50", "2.01 to 5 nM"],
  ["Cc1sc(NC2CC(F)(F)C2)nc1C(=O)NC1CC2(C1)CC(c1n[nH]c(=O)c3ccccc13)C2 (centres unmarked)", "IC50", "5.1 to 15 nM"],
  ["Cn1nc(C(=O)N[C@H]2CC3(C2)C[C@H](c2n[nH]c(=O)c4ccccc42)C3)c2ccccc21 (single isomer, unassigned)", "IC50", "100 to 2100 nM"],
  ["O=C(N[C@H]1CC2(C1)C[C@H](c1n[nH]c(=O)c3ccccc31)C2)c1cnn2cc(OCCN3CC(F)C3)ccc12 (some centres unmarked)", "IC50", "2.01 to 5 nM"],
  ["[H][C@]1(c2n[nH]c(=O)c3ccccc32)C[C@]2(C[C@@H](NC(=O)c3ccc(-c4cnn(C)c4C(F)(F)F)c(F)c3)C2)C1 (some centres unmarked)", "IC50", "2.01 to 5 nM"],
  ["[H][C@]1(c2n[nH]c(=O)c3ccccc32)C[C@]2(C[C@@H](NC(=O)c3ccc4[nH]c(C)nc4c3)C2)C1 (some centres unmarked)", "IC50", "15.1 to 100 nM"],
  ["O=C(NC1CC2(C1)CC(c1n[nH]c(=O)c3ccccc13)C2)c1cnn2cc(OCCN3CCOCC3)ccc12 (centres unmarked)", "IC50", "2.01 to 5 nM"],
  ["[2H]C([2H])([2H])n1cc(-c2ccc3c(c2)CCN3C(=O)NC2CC3(C2)CC(c2n[nH]c(=O)c4ccccc24)C3)cn1 (centres unmarked)", "IC50", "0.2 to 2 nM"],
  ["CC(C)(O)c1ccc2c(C(=O)N[C@H]3CC4(C3)C[C@H](c3n[nH]c(=O)c5ccccc53)C4)cnn2c1 (some centres unmarked)", "IC50", "5.1 to 15 nM"],
  ["CC(C)(O)COc1ccc2c(C(=O)NC3CC4(C3)CC(c3n[nH]c(=O)n5cccc35)C4)cnn2c1 (centres unmarked) [Example 279, TFA]", "IC50", "2.01 to 5 nM"],
  ["O=C(NC1CC2(C1)CC(c1n[nH]c(=O)c3ccccc13)C2)c1cnn2cc(OCCOCC(F)(F)F)ccc12 (centres unmarked)", "IC50", "0.2 to 2 nM"]
]}

###

Please consider the recorded pIC50 for UniProtKB O75116 in what follows.
pIC50: −log10 of the molar value.
readout_name: pIC50

{"columns": ["compound", "data_value"],
 "data": [
  ["[H][C@]1(c2n[nH]c(=O)c3ccccc32)C[C@]2(C[C@@H](NC(=O)c3ccc(-c4cnn(C5CCOCC5)c4)c(F)c3)C2)C1 (stereo partly shown) [Example 449]", "7.82 to 8.29"],
  ["[H][C@]1(c2n[nH]c(=O)c3ccccc32)C[C@]2(C[C@@H](NC(=O)c3cccc(-n4ccnc4)c3)C2)C1 (stereo partly shown) [Example 352]", "7.00 to 7.82"],
  ["O=C(NC1CC2(C1)CC(c1n[nH]c(=O)c3ccccc13)C2)c1ccn(-c2ccccc2)n1 (stereo not shown) [Example 10]", "5.68 to 7.00"],
  ["[H][C@]1(c2n[nH]c(=O)c3ccccc32)C[C@]2(C[C@@H](NC(=O)c3cnc4cc(-c5cnn(C(C)C)c5)ccn34)C2)C1 (stereo partly shown) [Example 441]", "8.70 to 9.70"],
  ["Cc1sc(N2CCCC2C(F)(F)F)nc1C(=O)NC1CC2(C1)CC(c1n[nH]c(=O)c3ccccc13)C2 (stereo not shown) [Example 59]", "7.82 to 8.29"],
  ["[H][C@]1(c2n[nH]c(=O)c3ccccc32)C[C@]2(C[C@@H](NC(=O)c3ccc(-c4cnn(C)c4)cn3)C2)C1 (stereo partly shown) [Example 450]", "7.00 to 7.82"],
  ["CC(C)(Oc1ccc2c(C(=O)N[C@H]3CC4(C3)C[C@H](c3n[nH]c(=O)c5ccccc53)C4)cnn2c1)C(=O)O (stereo partly shown) [Example 469]", "7.00 to 7.82"]
]}

The origin of these recorded values is patent US9902702B2.
